- SYSTEM_UNDER_TEST: Pim-1 kinase (SPR analysis) (UniProt P11309 1-313)
- Sequence (P11309 whole entry): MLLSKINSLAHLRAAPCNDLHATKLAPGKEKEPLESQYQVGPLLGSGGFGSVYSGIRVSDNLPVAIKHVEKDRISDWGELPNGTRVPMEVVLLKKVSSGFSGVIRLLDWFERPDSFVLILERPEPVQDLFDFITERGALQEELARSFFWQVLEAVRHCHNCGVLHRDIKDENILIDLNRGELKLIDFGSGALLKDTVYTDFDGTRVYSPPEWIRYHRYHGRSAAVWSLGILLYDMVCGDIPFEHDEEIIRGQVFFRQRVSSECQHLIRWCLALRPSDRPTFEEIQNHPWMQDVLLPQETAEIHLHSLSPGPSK
- ASSAY_NAME: SPR
ENDPOINT_NAME: pKd
Worth noting: pKd values are minus log10 of concentrations stated in mol/L.

Query string: For the binder RRRRRRRRKKPGLDRDQT [R8-T198mu peptide] , what pKd is on record?
Result string: 5.37
